// provenance: the supplement of paper PMC10883282

# Test system: RD
# MEASUREMENT_DESCRIPTION: relative viability vs DMSO control (72 h) (fraction); higher = more viable cells
# COND: 1.111 µM
OBSERVED_PROPERTY: relative viability
Give the figure by itself; no unit, no explanation.

Briefly, relative viability measured for `CN(C)C/C=C/C(=O)Nc1cc2c(Nc3ccc(F)c(Cl)c3)ncnc2cc1O[C@H]1CCOC1` : 0.569

Briefly, relative viability measured for `CCOc1cc2ncc(C#N)c(Nc3ccc(OCc4ccccn4)c(Cl)c3)c2cc1NC(=O)/C=C/CN(C)C` : 0.562

Briefly, relative viability measured for O=S(=O)(c1cccc2c(O)nccc12)N1CCCNCC1 [Hydroxyfasudil] : 1.17

Briefly, relative viability measured for `COc1cc2ncnc(Nc3ccc(F)c(Cl)c3)c2cc1OCCCN1CCOCC1` : 1.05

Briefly, relative viability measured for Cc1cc2c(F)c(Oc3ncnn4cc(OC[C@@H](C)OC(=O)[C@H](C)N)c(C)c34)ccc2[nH]1 [Brivanib_alaninate] : 1.12

Turning to the following compound.
Briefly, relative viability measured for `CCS(=O)(=O)N1CC(CC#N)(n2cc(-c3ncnc4[nH]ccc34)cn2)C1` : 1.05
